# assay_details: Selectivity index, ratio of LD50 for human WI38 cells to LD50 for human MCF7 cells
# Assay type: toxicity
# experimental_parameters: WI38 cells and MCF7 cells, read-out: Selectivity Index
parameter: selectivity ratio

mol_smiles=O=C(/C=C/c1cc(Cl)cc(Cl)c1)c1ccc(OCc2cn([C@@H]3O[C@H](CO)[C@@H](O)[C@H](O)[C@H]3O)nn2)cc1 recorded_value=0.86
mol_smiles=COc1ccc(/C=C/C(=O)c2ccc(OCc3cn([C@@H]4O[C@H](CO)[C@@H](O)[C@H](O)[C@H]4O)nn3)cc2)cc1OCc1ccccc1 recorded_value=1.25
mol_smiles=COc1cccc(/C=C/C(=O)c2ccc(OCc3cn([C@@H]4O[C@H](CO)[C@@H](O)[C@H](O)[C@H]4O)nn3)cc2)c1 recorded_value=1.16
mol_smiles=COc1cc(/C=C/C(=O)c2ccc(OCc3cn([C@@H]4O[C@H](CO)[C@@H](O)[C@H](O)[C@H]4O)nn3)cc2)cc(OC)c1 recorded_value=0.72
mol_smiles=O=C(/C=C/c1ccc([N+](=O)[O-])cc1)c1ccc(OCc2cn([C@@H]3O[C@H](CO)[C@@H](O)[C@H](O)[C@H]3O)nn2)cc1 recorded_value=1.19
mol_smiles=COc1ccc(/C=C/C(=O)c2ccc(OCc3cn([C@@H]4O[C@H](CO)[C@@H](O)[C@H](O)[C@H]4O)nn3)cc2)cc1OC recorded_value=0.83
mol_smiles=COc1ccc(C(=O)/C=C/c2ccc(OCc3cn([C@@H]4O[C@H](CO)[C@@H](O)[C@H](O)[C@H]4O)nn3)c(OC)c2)cc1OC recorded_value=1.45

====

# assay_details: Selectivity index, ratio of LD50 for human WI38 cells to LD50 for human MDA-MB-468 cells
# Format: toxicity
# experimental_parameters: WI38 cells and MDA-MB-468 cells, read-out: Selectivity Index
Criterion: selectivity ratio strictly less than 1. Met: true (1). Not met: false (0).

mol_smiles=COc1cc(/C=C/C(=O)c2ccc(OCc3cn([C@@H]4O[C@H](CO)[C@@H](O)[C@H](O)[C@H]4O)nn3)cc2)cc(OC)c1OC qualitative_label="false (0)"
mol_smiles=COc1cc(/C=C/C(=O)c2ccc(OCc3cn([C@@H]4O[C@H](CO)[C@@H](O)[C@H](O)[C@H]4O)nn3)cc2)cc(OC)c1 qualitative_label="false (0)"
mol_smiles=COc1ccccc1/C=C/C(=O)c1ccc(OCc2cn([C@@H]3O[C@H](CO)[C@@H](O)[C@H](O)[C@H]3O)nn2)cc1 qualitative_label="false (0)"
mol_smiles=O=C(/C=C/c1ccc(OCc2ccccc2)cc1)c1ccc(OCc2cn([C@@H]3O[C@H](CO)[C@@H](O)[C@H](O)[C@H]3O)nn2)cc1 qualitative_label="false (0)"
mol_smiles=COc1cccc(/C=C/C(=O)c2ccc(OCc3cn([C@@H]4O[C@H](CO)[C@@H](O)[C@H](O)[C@H]4O)nn3)cc2)c1 qualitative_label="true (1)"
mol_smiles=O=C(/C=C/c1cc(Cl)cc(Cl)c1)c1ccc(OCc2cn([C@@H]3O[C@H](CO)[C@@H](O)[C@H](O)[C@H]3O)nn2)cc1 qualitative_label="false (0)"
mol_smiles=COc1ccc(/C=C/C(=O)c2ccc(OCc3cn([C@@H]4O[C@H](CO)[C@@H](O)[C@H](O)[C@H]4O)nn3)cc2)cc1 qualitative_label="false (0)"
mol_smiles=CC(=O)O[C@H]1C(=O)[C@@]2(C)[C@H]([C@H](OC(=O)c3ccccc3)[C@]3(O)C[C@H](OC(=O)[C@H](O)[C@@H](NC(=O)c4ccccc4)c4ccccc4)C(C)=C1C3(C)C)[C@]1(OC(C)=O)CO[C@@H]1C[C@@H]2O qualitative_label="false (0)"
mol_smiles=CCOc1ccc(/C=C/C(=O)c2ccc(OCc3cn([C@@H]4O[C@H](CO)[C@@H](O)[C@H](O)[C@H]4O)nn3)cc2)cc1 qualitative_label="false (0)"
mol_smiles=COc1ccc(C(=O)/C=C/c2ccc(OCc3cn([C@@H]4O[C@H](CO)[C@@H](O)[C@H](O)[C@H]4O)nn3)c(OC)c2)cc1OC qualitative_label="false (0)"
mol_smiles=O=C(/C=C/c1cccc([N+](=O)[O-])c1)c1ccc(OCc2cn([C@@H]3O[C@H](CO)[C@@H](O)[C@H](O)[C@H]3O)nn2)cc1 qualitative_label="false (0)"
mol_smiles=O=C(/C=C/c1ccc(Cl)c(Cl)c1)c1ccc(OCc2cn([C@@H]3O[C@H](CO)[C@@H](O)[C@H](O)[C@H]3O)nn2)cc1 qualitative_label="true (1)"
mol_smiles=COc1ccc(/C=C/C(=O)c2ccc(OCc3cn([C@@H]4O[C@H](CO)[C@@H](O)[C@H](O)[C@H]4O)nn3)cc2)cc1OC qualitative_label="false (0)"
